# assay-explanation: Lipophilicity, log D of the compound at pH 7 by HPLC method
# Format: physicochemical
# measurement-parameters: buffer
assay-readout: logD
Please give the numeric answer without any surrounding text.

**Query** Which logD reading was recorded for the molecule Cn1cc(CNc2cc(OC[C@H]3C[C@@H]3c3ccccn3)nc3ccnn23)cn1 ?
**Result** 2

###

# assay-explanation: Plasma protein binding in iv dosed rhesus monkey
# Format: ADME, organism-based, Macaca mulatta
# measurement-parameters: read-out: PPB (converted)
assay-readout: fraction unbound
Please give the numeric answer without any surrounding text.

**Query** Which fraction unbound reading was recorded for the compound Cn1cc(CNc2cc(OC[C@H]3C[C@@H]3c3ccccn3)nc3ccnn23)cn1 ?
**Result** 0.03

###

Record form. Attribute: INH. Fill in for each entry.
# target-or-system: Voltage-gated inwardly rectifying potassium channel KCNH2 (Homo sapiens, UniProt Q12809)
# Sequence (Q12809 whole entry): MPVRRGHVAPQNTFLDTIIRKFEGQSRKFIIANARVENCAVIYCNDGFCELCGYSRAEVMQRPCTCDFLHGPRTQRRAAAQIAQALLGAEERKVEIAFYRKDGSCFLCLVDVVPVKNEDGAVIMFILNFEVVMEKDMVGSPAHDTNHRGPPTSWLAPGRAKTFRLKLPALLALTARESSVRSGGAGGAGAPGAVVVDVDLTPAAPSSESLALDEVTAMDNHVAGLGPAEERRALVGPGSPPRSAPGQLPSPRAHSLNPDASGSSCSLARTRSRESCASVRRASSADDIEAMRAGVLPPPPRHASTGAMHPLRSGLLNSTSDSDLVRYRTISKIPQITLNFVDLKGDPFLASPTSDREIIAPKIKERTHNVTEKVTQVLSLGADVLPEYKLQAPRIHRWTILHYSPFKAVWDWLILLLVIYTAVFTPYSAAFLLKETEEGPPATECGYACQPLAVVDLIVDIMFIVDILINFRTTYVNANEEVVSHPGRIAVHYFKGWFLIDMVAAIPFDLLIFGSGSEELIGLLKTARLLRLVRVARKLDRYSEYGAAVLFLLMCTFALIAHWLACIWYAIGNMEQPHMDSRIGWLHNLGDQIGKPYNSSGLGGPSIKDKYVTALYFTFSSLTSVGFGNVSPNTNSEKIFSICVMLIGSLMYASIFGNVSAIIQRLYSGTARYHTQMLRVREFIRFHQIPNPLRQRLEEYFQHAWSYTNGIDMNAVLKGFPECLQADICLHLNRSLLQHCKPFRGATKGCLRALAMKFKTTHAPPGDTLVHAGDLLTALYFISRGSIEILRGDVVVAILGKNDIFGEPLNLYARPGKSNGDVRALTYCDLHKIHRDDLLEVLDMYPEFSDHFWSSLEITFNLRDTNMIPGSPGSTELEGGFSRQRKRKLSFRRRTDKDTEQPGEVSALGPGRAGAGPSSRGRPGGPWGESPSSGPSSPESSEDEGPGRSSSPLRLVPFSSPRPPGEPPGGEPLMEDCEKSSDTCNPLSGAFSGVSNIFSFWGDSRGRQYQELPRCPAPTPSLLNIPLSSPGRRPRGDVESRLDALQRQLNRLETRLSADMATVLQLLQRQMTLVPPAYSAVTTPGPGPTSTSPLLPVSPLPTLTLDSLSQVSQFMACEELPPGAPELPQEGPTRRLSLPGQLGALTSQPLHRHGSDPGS
# assay-explanation: Inhibition of MK-499 binding to human ERG
Please respond with the number in µM and leave the unit unwritten.

**Query** Which INH reading was recorded for the compound Cc1nc(C)c(CNc2cc(C3CC3)nc3ccnn23)s1 ?
**Result** 52

**Query** Which INH reading was recorded for the compound Cc1nc(C)c(CNc2nc(OCCCc3ccc4ccccc4n3)nc(Cl)c2C)s1 ?
**Result** 3.8

###

# assay-explanation: Terminal half life in iv dosed rhesus monkey
# Format: ADME, organism-based, Macaca mulatta
# measurement-parameters: in vivo, read-out: beta t1/2 (converted)
assay-readout: half-life (h)
Please respond with the number in h and leave the unit unwritten.

**Query** Which half-life reading was recorded for the molecule Cn1cc(CNc2cc(OC[C@H]3C[C@@H]3c3ccccn3)nc3ccnn23)cn1 ?
**Result** 2.8

###

# assay-explanation: Oral bioavailability in beagle dog
# Format: ADME, organism-based, Canis lupus familiaris
# measurement-parameters: in vivo
assay-readout: bioavailability (%)
Please respond with the number in % and leave the unit unwritten.

**Query** Which bioavailability reading was recorded for the compound Cn1cc(CNc2cc(OC[C@H]3C[C@@H]3c3ccccn3)nc3ccnn23)cn1 ?
**Result** 63

###

assay-readout: pIC50
A value of pIC50 is the negative decimal logarithm of a concentration given in moles per litre.

**Query** Param readout = pIC50; param system = Cytochrome P450 2D6 (Homo sapiens, UniProt P10635); param query = Cc1nc(C)c(CNc2nc(C3CC3)nc(Cl)c2C)s1 ; response: value
Sequence (P10635 whole entry): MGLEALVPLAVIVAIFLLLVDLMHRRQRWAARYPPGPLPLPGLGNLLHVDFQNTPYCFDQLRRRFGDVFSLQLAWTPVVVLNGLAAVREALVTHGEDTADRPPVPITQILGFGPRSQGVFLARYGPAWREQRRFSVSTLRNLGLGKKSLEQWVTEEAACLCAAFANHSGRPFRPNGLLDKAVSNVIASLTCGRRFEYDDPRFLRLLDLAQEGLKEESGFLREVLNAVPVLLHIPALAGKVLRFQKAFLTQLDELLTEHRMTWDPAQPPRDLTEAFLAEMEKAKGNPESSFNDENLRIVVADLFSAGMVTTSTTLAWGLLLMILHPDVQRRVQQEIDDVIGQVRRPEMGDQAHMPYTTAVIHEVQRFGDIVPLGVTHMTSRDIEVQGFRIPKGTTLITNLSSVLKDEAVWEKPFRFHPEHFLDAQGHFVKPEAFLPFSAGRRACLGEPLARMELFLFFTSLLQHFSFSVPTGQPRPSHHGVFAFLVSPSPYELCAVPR
**Result** 5.09

###

# assay-explanation: Aqueous solubility of the compound at pH 7
# Assay type: physicochemical
assay-readout: solubility (µM)
Please respond with the number in µM and leave the unit unwritten.

**Query** Which solubility reading was recorded for the molecule Cc1nc(C)c(CNc2cc(C3CC3)nc3ccnn23)s1 ?
**Result** 196

**Query** Which solubility reading was recorded for the molecule Cc1nc(C)c(CNc2nc(C3CC3)nc(Cl)c2C)s1 ?
**Result** 2

**Query** Which solubility reading was recorded for the molecule Cc1c(Cl)nc(C2CC2)nc1Cl ?
**Result** 150

**Query** Which solubility reading was recorded for the molecule Cn1cc(-c2ccncc2)c(-c2ccc(OCc3ccc4ccccc4n3)cc2)n1 ?
**Result** 4

**Query** Which solubility reading was recorded for the molecule Cc1c(Cl)nc(OC[C@H]2C[C@@H]2c2ccccn2)nc1NCc1cnn(C)c1 ?
**Result** 162

###

Record form. Attribute: pEC50. Fill in for each entry.
# target-or-system: Nuclear receptor subfamily 1 group I member 2 (Homo sapiens, UniProt O75469)
# Sequence (O75469 whole entry): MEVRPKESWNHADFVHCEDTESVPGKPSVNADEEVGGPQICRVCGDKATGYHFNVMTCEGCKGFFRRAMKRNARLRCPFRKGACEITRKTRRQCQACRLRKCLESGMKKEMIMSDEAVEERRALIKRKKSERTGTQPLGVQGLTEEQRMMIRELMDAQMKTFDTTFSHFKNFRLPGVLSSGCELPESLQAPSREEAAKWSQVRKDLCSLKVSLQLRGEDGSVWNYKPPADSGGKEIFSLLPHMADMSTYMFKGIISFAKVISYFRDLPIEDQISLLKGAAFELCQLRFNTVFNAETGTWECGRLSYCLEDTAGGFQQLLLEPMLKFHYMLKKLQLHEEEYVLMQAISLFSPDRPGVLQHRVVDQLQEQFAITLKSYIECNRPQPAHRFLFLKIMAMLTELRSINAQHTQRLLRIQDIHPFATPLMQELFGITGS
# assay-explanation: Activation of PXR (unknown origin)
A value of pEC50 is the negative decimal logarithm of a concentration given in moles per litre.

**Query** Which pEC50 reading was recorded for the compound Cc1nc(C)c(CNc2nc(OCCCc3ccc4ccccc4n3)nc(Cl)c2C)s1 ?
**Result** 5.64

**Query** Which pEC50 reading was recorded for the compound Cc1c(Cl)nc(OC[C@H]2C[C@@H]2c2ccccn2)nc1NCc1cnn(C)c1 ?
**Result** 5.25

**Query** Which pEC50 reading was recorded for the compound Cc1nc(C)c(CNc2nc(C3CC3)nc(Cl)c2C)s1 ?
**Result** 4.72
